# target-of-assay: T1, human CD28 (human, UniProt P10747 19-220)
# T1 construct: whole, on cells; Endogenous CD28 of Jurkat/IL2 reporter cells
# procedure-text: flow cytometry, Jurkat/IL2 reporter cells (endogenous CD28), 33.3 nM, PE anti-human Fc
attribute-measured: Fold change to WT (fold)

binder	unit-of-measure	measured-result
H18Y/V22A/E35D/T41S/M47V/T62N/A71G/A91G CD80 IgV-Fc (Fc fusion, not shown: a dimerising Fc or GST) VIHVTKEVKEVATLSCGYNVSAEELAQTRIYWQKDKKMVLSMMSGDVNIWPEYKNRTIFDINNNLSIVILGLRPSDEGTYECVVLKYEKDGFKREHLAEVTLSVKAD	fold	38.5
S15T/H18Y/E35D/M47V/T62A/N64S/A71G/L85Q/D90N CD80 IgV-Fc (Fc fusion, not shown: a dimerising Fc or GST) VIHVTKEVKEVATLTCGYNVSVEELAQTRIYWQKDKKMVLTMMSGDVNIWPEYKNRTIFDIANSLSIVILGLRPSDEGTYECVVQKYEKNAFKREHLAEVTLSVKAD	fold	25.9
CD80 WT IgV-Fc (Fc fusion, not shown: a dimerising Fc or GST, also called WT CD80-IgV-Fc; wild-type CD80 IgV-Fc) VIHVTKEVKEVATLSCGHNVSVEELAQTRIYWQKEKKMVLTMMSGDMNIWPEYKNRTIFDITNNLSIVILALRPSDEGTYECVVLKYEKDAFKREHLAEVTLSVKAD	fold	1

[1] E35D/M47L/V68M/A71G/L85Q/D90G CD80 IgV-Fc (Fc fusion, not shown: a dimerising Fc or GST) VIHVTKEVKEVATLSCGHNVSVEELAQTRIYWQKDKKMVLTMMSGDLNIWPEYKNRTIFDITNNLSIMILGLRPSDEGTYECVVQKYEKGAFKREHLAEVTLSVKAD
[2] E24D/Q27R/E35D/T41S/M47V/L85Q CD80 IgV-Fc (Fc fusion, not shown: a dimerising Fc or GST) VIHVTKEVKEVATLSCGHNVSVEDLARTRIYWQKDKKMVLSMMSGDVNIWPEYKNRTIFDITNNLSIVILALRPSDEGTYECVVQKYEKDAFKREHLAEVTLSVKAD
q: Between the entries labelled 1 and 2 , which has a larger Fold change to WT value on record? Your answer should be the label of the entry you select.
a: 1
(1: 33.9 fold, 2: 1.6 fold)
